TGT: FGFR1 (Homo sapiens, UniProt P11362, C488A/C584S)
Construct: made in house; host or cells: E. coli
Sequence (P11362 with tags, fused parts or gaps C488A/C584S): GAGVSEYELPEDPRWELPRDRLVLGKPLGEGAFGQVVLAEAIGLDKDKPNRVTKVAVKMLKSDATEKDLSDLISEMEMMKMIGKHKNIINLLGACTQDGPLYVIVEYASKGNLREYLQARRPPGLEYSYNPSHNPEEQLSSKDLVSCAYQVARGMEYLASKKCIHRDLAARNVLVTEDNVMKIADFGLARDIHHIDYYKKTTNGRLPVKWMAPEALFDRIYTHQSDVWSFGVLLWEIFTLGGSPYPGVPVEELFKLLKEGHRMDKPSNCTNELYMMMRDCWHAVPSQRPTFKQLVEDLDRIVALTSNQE
ASSAY: ESI-CIU-IMS-MS collision-induced unfolding of FGFR1 after incubation with inhibitor
CONDITION: 24 V Trap, 11+ FGFR1 ions
Quick rule for you: Intensity vs base peak (5.5 ms) of the unfolded conformer at ca 7.6 ms at 50% or higher means class 1, lower means class 0.

Examples with answers:
| COMPOUND | TGT | CATEGORY |
| --- | --- | --- |
| CNC(=O)c1cc(Oc2ccc(NC(=O)Nc3ccc(Cl)c(C(F)(F)F)c3)cc2)ccn1 [Sorafenib] | FGFR1 (Homo sapiens, UniProt P11362, C488A/C584S) | class 1 |
| CN1CCN(c2ccc(NC(=O)c3n[nH]c4ccccc34)cc2)CC1 [JK-P5] | FGFR1 (Homo sapiens, UniProt P11362, C488A/C584S) | class 0 |

**Q:** Would you say COc1ccc(C(=O)Nc2cc(-c3ccccc3)[nH]n2)cc1OC [JK-P3] shows Intensity vs base peak (5.5 ms) of the unfolded conformer at ca 7.6 ms at minimum 50%?
**A:** class 0

**Q:** Would you say Cc1cc(Nc2nc(NCCc3cccnc3)ncc2Br)n[nH]1 [Compound C] shows Intensity vs base peak (5.5 ms) of the unfolded conformer at ca 7.6 ms at minimum 50%?
**A:** class 0
